Cited source: patent US20250214977A1

System: Phosphorylation of STAT6 in human PBMC (CD19+ B cells)
Experiment: Phosphorylated STAT6 (pSTAT6) flow cytometry assay in human PBMC, IL-4 stimulated
Format: cell-based
Conditions: compound 1 hour, 1 ng/ml IL-4 for 15 minutes, read-out: STAT6 IL4 pSTAT6 assay in PBMC: Average IC50
Attribute Measured: IC50

| Molecule | Attribute Measured | Obs Value |
| --- | --- | --- |
| CN(C)C(=O)c1cn2cc(C3=CCCN(C(=O)CCn4ccnn4)C3)ccc2n1 | IC50 | > 100 µM |
| CN(C)C(=O)c1cc2cc(C3=CCCN(C(=O)Cn4cncn4)C3)ccc2o1 | IC50 | > 100 µM |
| CN(C)C(=O)c1cc2cc(C3=CCCN(C(=O)CCc4ccncc4)C3)ccc2o1 | IC50 | > 100 µM |
| COC(=O)CCC#Cc1cccc2c1CC(C(=O)N1CCC=C(c3ccc4oc(C(=O)N(C)C)cc4c3)C1)N(C=O)C2 (stereo not shown) | IC50 | 1 to 10 µM |
| CN(C)C(=O)c1cc2ccc(C3=CCCN(S(=O)(=O)Cc4cccnn4)C3)cc2[nH]1 | IC50 | > 100 µM |
| CN(C)C(=O)c1cc2ccc(C3=CCCN(C(=O)CCn4ccnn4)C3)nc2[nH]1 | IC50 | 10 to 100 µM |
| C[C@@H]1CCCCN1C(=O)c1cc2ccc(C3=CCCN(C(=O)CCn4ccnn4)C3)cc2[nH]1 (single isomer, unassigned) | IC50 | > 100 µM |
